Origin of measurements: PubChem BioAssay AID248

Tested on: L1210 leukemia ip in BDF1 mice, survival T/C
PROTOCOL_NOTES: NCI In Vivo Anticancer Drug Screen. Data for tumor model L1210 Leukemia (intraperitoneal) in B6D2F1 (BDF1) mice
COND: endpoint: mean survival time; dose: 400.0 mg/kg/injection; schedule: Q01DX001 (ip); vehicle: saline; higher = longer survival
Inconclusive results and toxic doses are left out.
Let's look at some molecules and their measured T/C.
PARAMETER: T/C

1) COc1cc(=O)n2cc(C)ccc2n1	90 % of control
2) CC12C=CC3(CCC4C(C)(C)C(OC5OC(CO)C(O)C(O)C5O)C(=O)CC4(C)C3CC1=O)C2 (configuration not stated)	97 % of control
3) Cc1ccc(C)c(N(c2ccccc2N)S(C)(=O)=O)c1	90 % of control
4) COCc1ccc([N+](=O)[O-])o1	101 % of control
5) NC(N)=NCCCC(N)C(=O)O (configuration not stated)	103 % of control
6) CC(=O)Oc1c2c(c(OC(C)=O)c3c1C(=O)c1ccccc1C3=O)CCCC2	98 % of control
7) COc1cccc(C(N)C(=O)O)c1 (configuration not stated)	97 % of control
8) NCC1OC(n2cnc3c(=O)[nH]c(N)nc32)C(O)C1O (configuration not stated)	91 % of control
9) COc1ccc(/C=N/O)cc1	96 % of control
10) CC1(C)N=C(N)N=C(N)N1c1ccc(OCC(=O)Nc2cccc(S(=O)(=O)F)c2)cc1	107 % of control
11) O=C(CCCC(=O)N/N=C/c1c2ccccc2cc2ccccc12)N/N=C/c1c2ccccc2cc2ccccc12	96 % of control
12) C1=COC(C2NCCCN2)CC1 (configuration not stated)	106 % of control
